FYI, the data here is from PubChem BioAssay.

- experiment.description: plasmodial surface anion channel blockers, osmotic lysis – cell-based, P. falciparum Indochina, OD700, 2 h, primary screen (AID 1155);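 note: lysis reports solute entry through the parasite surface anion channel PSAC; channel blockers reduce lysis of infected cells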
- stated.conditions: P. falciparum Indochina infected erythrocytes, called active from +8 up or from −8 down
The source made the active and inactive calls.
Classes used: 1.0 = active, 0.0 = inactive

INSERT INTO assay_data (compound, category_label) VALUES
  ('C=CCC(OC(C)=O)[C@@H]1[C@@H](N(Cc2cc3ccccc3o2)C(=O)Cc2ccc(F)cc2)c2cc(OCCCO)ccc2N1C(=O)Cc1ccc2ccccc2c1 (stereo partly drawn)', 0.0),
  ('C[C@@H]1NC(=O)[C@@H](Cc2ccccc2)NC(=O)[C@@]23C(=O)N[C@@H](Cc4ccccc4)C2[C@H](C)[C@@]2(C)O[C@H]2C3/C=C/C/C=C\CNC1=O (stereo partly drawn)', 0.0),
  ('COCCCNC(=O)[C@@]1(Sc2ccc(C)cc2)CC(=O)N(C2Cc3ccccc3C2)[C@@H]1c1ccc(CO)cc1', 0.0),
  ('[N-]=[N+]=Nc1ccccc1C[C@]1(C(=O)NCC(O)CO)COC(c2ccc(OCCCO)cc2)=N1 (stereo partly drawn)', 0.0),
  ('CN(C)C(=O)[C@]1(Cc2ccccc2CN=[N+]=[N-])N=C(c2ccc(OCCCO)cc2)O[C@@H]1c1ccccc1', 1.0),
  ('COC(=O)[C@@]1(Cc2ccc(F)cc2)[C@H]2c3cc(C(=O)N4CCCC4)n(CCc4c[nH]c5ccccc45)c3C[C@H]2CN1C(=O)c1ccccc1', 0.0),
  ('CCCCC(CC)C(O)C1C=CC2C(=O)N(c3ccccc3)C(=O)C2N1Nc1ccc(C#N)cc1 (stereo not drawn)', 0.0),
  ('CCCCC(CC)C(O)C1C=CC2C(=O)N(C)C(=O)C2N1Nc1ccccc1 (stereo not drawn)', 0.0),
  ('CCCCCCc1nc(Cc2cc(OC)c(OC)c(OC)c2)cc2c1[Si](C(C)C)(C(C)C)OC2', 0.0),
  ('COc1cc(NN2C(C(O)c3ccco3)C=CC3C(=O)N(C)C(=O)C32)cc(OC)c1OC (stereo not drawn)', 0.0),
  ('COc1ccc([Si](C)(C)[C@@H]2[C@@H](CCO)O[C@]3(C(=O)N(Cc4cccc(NC(=O)[C@H](C)O)c4)c4ccccc43)[C@H]2C)cc1', 0.0),
  ('CCCCCN1CC=CC23O[C@@H]4/C=C\CCC(C)OC(=O)C4[C@H]2C(=O)N(C(CO)C(C)C)[C@@H]3C1=O (stereo partly drawn)', 0.0),
  ('C=C(/C(=C/C[C@H](OC(=O)c1ccncc1)c1ccc(CO)o1)c1cnc2ccccc2c1)C(C)C', 0.0),
  ('NC(=O)NCC#Cc1ccc2c(c1)[C@]1(C(=O)N2)[C@H](c2ccccc2OCCO)N2[C@H](c3ccccc3)[C@H](c3ccccc3)OC(=O)[C@H]2[C@@H]1C(=O)NC[C@H](O)c1ccccc1', 0.0),
  ('CCCC=C(CCC)[C@@H](NP(=O)(c1ccccc1)c1ccccc1)c1ccc(-c2ccccc2)cc1', 0.0),
  ('CC1CC/C=C\[C@H]2OC34C=CCN(c5ccc(Cl)cc5)C(=O)[C@H]3N(C(C)CO)C(=O)[C@]4(C)C2C(=O)O1 (stereo partly drawn)', 0.0),
  ('C=CCNC(=O)[C@@H]1[C@H]2C(=O)O[C@H](c3ccccc3)[C@H](c3ccccc3)N2[C@H](c2ccc(O)cc2)[C@@]12C(=O)N(C(=O)OCCOC)c1ccc(C#CC3=CCCCC3)cc12', 0.0),
  ('C=CCC(OC(C)=O)[C@@H]1[C@@H](N(Cc2cccc3ccccc23)C(=O)Cc2ccc(F)cc2)c2cc(OCCCO)ccc2N1C(=O)c1ccc2ccccc2c1 (stereo partly drawn)', 0.0),
  ('NCCCCCCNC(=O)[C@@H]1C[C@@H]2C(=O)N[C@@H](CCCCN)C(=O)N2[C@@H]1c1ccc(O)cc1', 0.0),
  ('COC(=O)C1(CC(C)C)C=C2C(=C(c3ccccc3)C(=O)C2C)CN1 (stereo not drawn)', 0.0),
  ('CC(C)c1ccc(NN2C(C(O)c3ccc(F)cc3)C=CC3C(=O)N(c4ccccc4)C(=O)C32)cc1 (stereo not drawn)', 0.0),
  ('CC[C@@H]1O[Si](C(C)C)(C(C)C)c2c1cc(-c1cc(C)c(OC)c(C)c1)nc2-c1ccc(Oc2ccccc2)cc1', 0.0),
  ('CC(C)C(CO)N1C(=O)[C@@H]2C3C(=O)OCCC/C=C\[C@H]3OC23C=CCN(c2ccc4ccccc4c2)C(=O)[C@@H]13 (stereo partly drawn)', 0.0);

====

Item-by-item account of composite z-score
- System: Lefty1
- experiment.description: Lefty1 protein binding to printed compounds – biochemical, small-molecule microarray, 635/667 nm fluorescence, primary screen (AID 1139)
- stated.conditions: fluorescence 635/667, higher = more signal
parameter: composite z-score

INSERT INTO measurements (compound, endpoint_result) VALUES
  ('COC(=O)[C@@]1(Cc2ccc(F)cc2)[C@H]2c3cc(C(=O)N4CCCC4)n(Cc4ccc(C)c(F)c4F)c3C[C@H]2CN1C(=O)c1ccccc1', -0.605),
  ('O=C1C2C=CC(C(O)c3cccc(O)c3)N(Nc3ccc([N+](=O)[O-])cc3)C2C(=O)N1c1ccccc1 (centres undefined)', 0.292),
  ('COC(=O)C/C=C/C[C@]1(O)C(=O)N(C)c2ccccc21', 1.17),
  ('CN1C(=O)C2C=CC(C(O)c3cccn3C)N(Nc3ccc([N+](=O)[O-])cc3[N+](=O)[O-])C2C1=O (centres undefined)', -0.583);

====

- System: Human papillomavirus type 1a E7 protein (residues 1-88)
- experiment.description: HPV1a E7 small-molecule binders, primary screen, biochemical, small-molecule microarray, residues 1-88, 635 nm (AID 1129)
- stated.conditions: small-molecule microarray binding, fluorescence 635 nm; higher = more signal
Item-by-item account of composite z-score
parameter: composite z-score

INSERT INTO measurements (compound, endpoint_result) VALUES
  ('COc1cc2c(cc1O)C(c1ccc(CN3CCCC3)cc1)N(Cc1cc3c(cc1Br)OCO3)CC2 (stereo not drawn)', -0.367),
  ('COc1cc(OC)c(C(O)C2C=CC3C(=O)N(Cc4ccccc4)C(=O)C3N2n2cnnc2)cc1Br (stereo not drawn)', 1.17),
  ('O[C@@H](Cc1ccccc1)[C@@H](/C=C/C1CC1)N(CC#Cc1ccccc1)Cc1ccccc1Br', -0.33),
  ('COCCOC(=O)N1C(=O)[C@@]2(c3cc(C#CC4(O)CCCCCC4)ccc31)[C@H](C(=O)N1CCc3cc(OC)c(OC)cc3C1)[C@H]1C(=O)O[C@H](c3ccccc3)[C@H](c3ccccc3)N1[C@@H]2c1ccc(OCCO)cc1', 0.867),
  ('C=CCN1C(=O)[C@]2(CCS(=O)(=O)c3ccccc3)N=C(c3ccc(OCCCO)cc3)O[C@@H]2c2ccccc21', 1.23),
  ('OCCCC1=CC(c2ccc(CN3CCCC3)cc2)N(Cc2cc3c(cc2Br)OCO3)CC1 (stereo not drawn)', 0.049),
  ('COC(=O)C/C=C/C[C@]1(O)C(=O)N(C)c2ccccc21', 0.243),
  ('CC(C)[Si](C#C[Si](C(C)C)(C(C)C)C(C)C)(O[C@H](c1ccccc1)c1cn(Cc2ccccc2)nn1)C(C)C', 0.733);

====

- experiment.description: ATP-based viability of Huh7 replicon cells – cell-based, CellTiter-Glo luminescence, basal, 48 h, cytotoxicity control for HCV replication inhibitor project, primary screen (AID 1143);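 note: Huh7 hepatoma cells carrying a hepatitis C replication reporter with no stimulus; test concentration not given here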
- stated.conditions: higher = more signal, called active from +8 up or from −8 down
We use -0.2 as the dividing line for z-score: on or above the line is y, below is n.

INSERT INTO results (compound, category_label) VALUES
  ('Oc1ccc2cc[n+](Cc3cc4c(cc3Br)OCO4)cc2c1', 'n'),
  ('CCCCCN1CC=CC23O[C@@H]4/C=C\CCCOC(=O)C4[C@H]2C(=O)N(C(C)CO)[C@@H]3C1=O (some centres not stated)', 'y'),
  ('COCCOC(=O)N1C(=O)[C@@]2(c3cc(C#CC4=CCCCC4)ccc31)[C@H](c1ccccc1OCCO)N1[C@H](c3ccccc3)[C@H](c3ccccc3)OC(=O)[C@H]1[C@@H]2C(=O)NC[C@H](O)c1ccccc1', 'n'),
  ('CCOC(=O)C1=CC[C@@H](c2ccccc2)N(S(=O)(=O)c2ccc(C)cc2)[C@H]1c1ccccc1', 'n'),
  ('COC(=O)[C@@H]1N=C(c2ccc(OCCCO)cc2)O[C@@H]1C', 'y'),
  ('NC(=O)[C@H]1[C@@H]2C(=O)O[C@@H](c3ccccc3)[C@@H](c3ccccc3)N2[C@@H](c2ccc(OCCO)cc2)[C@]12C(=O)Nc1ccc(C#CCCO)cc12', 'n'),
  ('O=C1NC(=O)C2C1C=CC(C(O)c1ccco1)N2Nc1ccc(Cl)cc1Cl (configuration not stated)', 'n'),
  ('C=CCC(OC(C)=O)[C@@H]1[C@@H](N(Cc2cccc3ccccc23)C(=O)Cc2ccc(F)cc2)c2cc(OCCCO)ccc2N1C(=O)c1ccc2ccccc2c1 (some centres not stated)', 'y'),
  ('O[C@@H](Cc1ccccc1)[C@@H](/C=C/C1CC1)N(CC#Cc1ccccc1)Cc1ccccc1Br', 'n'),
  ('CC(C)N1C(=O)C[C@@](C(=O)O)(c2ccc([N+](=O)[O-])cc2)[C@H]1c1ccc(CO)cc1', 'y'),
  ('O=C(O)[C@@H]1C[C@@H]2C(=O)N3CCC[C@H]3C(=O)N2[C@@H]1c1ccc(O)cc1', 'n'),
  ('CCOc1cc(C(O)C2C=CC3C(=O)NC(=O)C3N2Nc2ccc(Cl)cc2Cl)ccc1O (configuration not stated)', 'y'),
  ('CC[C@@H]1C=C(C(=O)O)[C@H](c2ccc(C#N)cc2)N1S(=O)(=O)c1ccc(C)cc1', 'n'),
  ('C=CCOC(=O)[C@@H]1[C@H]2C(=O)O[C@H](c3ccccc3)[C@H](c3ccccc3)N2[C@H](c2ccc(OCCOC(=O)[C@@H]3C[C@@H]4C(=O)N[C@@H](CCCC[N+](C)(C)C)C(=O)N4[C@@H]3c3ccc(O)cc3)cc2)[C@@]12C(=O)Nc1ccc(I)cc12', 'n'),
  ('O=C1C2C=CC(C(O)C3CC=CCC3)N(Nc3ccccc3)C2C(=O)N1c1ccccc1 (configuration not stated)', 'n'),
  ('COc1cc(NN2C(C(O)c3ccc(N(C)C)cc3)C=CC3C(=O)N(c4ccccc4)C(=O)C32)cc(OC)c1OC (configuration not stated)', 'n'),
  ('[N-]=[N+]=NCc1ccccc1[C@@H]1OC(c2ccc(OCCCO)cc2)=N[C@]1(CCS(=O)(=O)c1ccccc1)C(=O)O', 'y');
